Value source: ChEMBL document CHEMBL2086224

# Tested on: Plasma
# measurement-notes: Plasma concentration in human MDA-MB-231 cells xenografted mouse at 60 mg/kg
# Type: ADME, organism-based
# Set-up: dose 60 mg/kg
# conditions: in vivo
reported-property: concentration (nM)

compound="CCN1CCC(Nc2ccc3c(c2)C(=C(c2ccc(Cl)cc2)c2ncc[nH]2)C(=O)N3)CC1 (mixture of isomers)" reported_property=concentration readout_unit=nM assay_result=260

---

# measurement-notes: Drug uptake in VEGF-stimulated mouse lung at 30 mg/kg, po after 4 hrs
# Format: ADME, organism-based
# Parameters: dose 30 mg/kg, route oral
# conditions: read-out: Drug uptake
reported-property: concentration at 4 h (nM)

compound="CCN1CCC(Nc2ccc3c(c2)C(=C(c2ccc(Cl)cc2)c2ncc[nH]2)C(=O)N3)CC1 (mixture of isomers)" readout_unit=nM assay_result=470

---

Below, each entry is listed alongside its reported AUC(0-inf).
# measurement-notes: AUC (0 to infinity) in rat at 10 mg/kg, po
# Type: ADME, organism-based
# Design: time infinity, dose 10 mg/kg, route oral
# conditions: plasma
reported-property: AUC(0-inf) (µM·h)

compound="CCN1CCC(Nc2ccc3c(c2)C(=C(c2cccc(F)c2)c2ncc[nH]2)C(=O)N3)CC1 (mixture of isomers)" reported_property=AUC(0-inf) readout_unit=µM·h assay_result=1.12
compound="CCN1CCC(Nc2ccc3c(c2)C(=C(c2ccc(OC)cc2)c2nc4ccccc4[nH]2)C(=O)N3)CC1 (mixture of isomers)" reported_property=AUC(0-inf) readout_unit=µM·h assay_result=0.33
compound="CCN1CCC(Nc2ccc3c(c2)C(=C(c2cc(F)cc(F)c2)c2nc4ccccc4[nH]2)C(=O)N3)CC1 (mixture of isomers)" reported_property=AUC(0-inf) readout_unit=µM·h assay_result=3.14
compound="CCN1CCC(Nc2ccc3c(c2)C(=C(c2ccccc2)c2ncc[nH]2)C(=O)N3)CC1 (mixture of isomers)" reported_property=AUC(0-inf) readout_unit=µM·h assay_result=1.5

---

# measurement-notes: Drug uptake in human MDA-MB-231 cells xenografted mouse tumor at 30 mg/kg
# Type: ADME, organism-based, Neoplasm
# Parameters: dose 30 mg/kg
# conditions: in vivo, read-out: Drug uptake
reported-property: concentration (nM)

molecule="CCN1CCC(Nc2ccc3c(c2)C(=C(c2ccc(Cl)cc2)c2ncc[nH]2)C(=O)N3)CC1 (mixture of isomers)" readout_unit=nM assay_result=1400

---

# measurement-notes: Plasma concentration in VEGF stimulated-mouse at 1 mg/kg, po after 4 hrs
# Type: ADME, organism-based
# Parameters: dose 1 mg/kg, route oral
reported-property: concentration at 4 h (nM)

molecule="CCN1CCC(Nc2ccc3c(c2)C(=C(c2ccc(Cl)cc2)c2ncc[nH]2)C(=O)N3)CC1 (mixture of isomers)" reported_property="concentration at 4 h" assay_result=4
